molecular target: recombinant perforin (UniProt P10820); type: cell-based; settings: lysis of Jurkat T lymphoma cells by recombinant perforin, 0.1% BSA, 30 min pre-incubation, 4 hours at 37° C.; read-out: Jurkat IC50
Sequence (P10820 whole entry): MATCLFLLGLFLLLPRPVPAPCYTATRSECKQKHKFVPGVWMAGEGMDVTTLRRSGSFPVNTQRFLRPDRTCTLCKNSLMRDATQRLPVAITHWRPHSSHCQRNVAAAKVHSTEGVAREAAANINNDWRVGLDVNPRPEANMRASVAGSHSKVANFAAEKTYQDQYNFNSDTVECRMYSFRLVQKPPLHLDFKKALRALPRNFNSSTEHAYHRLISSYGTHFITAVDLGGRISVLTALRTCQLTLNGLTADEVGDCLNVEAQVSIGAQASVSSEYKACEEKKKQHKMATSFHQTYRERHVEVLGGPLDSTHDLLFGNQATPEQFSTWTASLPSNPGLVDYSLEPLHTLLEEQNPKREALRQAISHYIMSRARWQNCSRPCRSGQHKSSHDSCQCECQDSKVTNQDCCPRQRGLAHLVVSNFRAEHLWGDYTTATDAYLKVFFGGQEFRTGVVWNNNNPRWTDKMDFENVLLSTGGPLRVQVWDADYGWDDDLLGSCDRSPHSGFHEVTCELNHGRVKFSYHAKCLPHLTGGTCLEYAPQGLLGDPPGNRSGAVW
Parameter IC50: see the listing below.
MEASURE: IC50 (µM)

[
  {
    "SMILES NOTATION": "CN1Cc2cc(-c3ccc(-c4cncc(NS(=O)(=O)c5ccc(I)cc5)c4)s3)ccc2C1=O",
    "MEASURE": "IC50",
    "VALUE MEASURED": 5
  },
  {
    "SMILES NOTATION": "CN1Cc2cc(-c3ccc(-c4cncc(NS(=O)(=O)c5cccc(OC(F)(F)F)c5)c4)s3)ccc2C1=O",
    "MEASURE": "IC50",
    "VALUE MEASURED": 1.42
  },
  {
    "SMILES NOTATION": "CN1Cc2cc(-c3ccc(-c4cncc(NS(=O)(=O)c5ccc(Cl)cc5Cl)c4)s3)ccc2C1=O",
    "MEASURE": "IC50",
    "VALUE MEASURED": 15
  },
  {
    "SMILES NOTATION": "COC(=O)c1ccccc1S(=O)(=O)Nc1cncc(-c2ccc(-c3ccc4c(c3)CN(C)C4=O)s2)c1",
    "MEASURE": "IC50",
    "VALUE MEASURED": 2.9
  },
  {
    "SMILES NOTATION": "CN1Cc2cc(-c3ccc(-c4cncc(NS(=O)(=O)c5cccs5)c4)s3)ccc2C1=O",
    "MEASURE": "IC50",
    "VALUE MEASURED": 1.07
  },
  {
    "SMILES NOTATION": "CCOC(=O)c1ccc(S(=O)(=O)Nc2cncc(-c3ccc(-c4ccc5c(c4)CN(C)C5=O)s3)c2)cc1",
    "MEASURE": "IC50",
    "VALUE MEASURED": 19.4
  },
  {
    "SMILES NOTATION": "CN1Cc2cc(-c3ccc(-c4cncc(NS(=O)(=O)c5ccccc5)c4)s3)ccc2C1=O",
    "MEASURE": "IC50",
    "VALUE MEASURED": 8.46
  }
]

The reported measurements were obtained from patent US9896443B2.
